Where these numbers come from: ChEMBL document CHEMBL1142327

Adenosine receptor A2a (Homo sapiens, UniProt P29274) Ki data
Sequence (P29274 whole entry): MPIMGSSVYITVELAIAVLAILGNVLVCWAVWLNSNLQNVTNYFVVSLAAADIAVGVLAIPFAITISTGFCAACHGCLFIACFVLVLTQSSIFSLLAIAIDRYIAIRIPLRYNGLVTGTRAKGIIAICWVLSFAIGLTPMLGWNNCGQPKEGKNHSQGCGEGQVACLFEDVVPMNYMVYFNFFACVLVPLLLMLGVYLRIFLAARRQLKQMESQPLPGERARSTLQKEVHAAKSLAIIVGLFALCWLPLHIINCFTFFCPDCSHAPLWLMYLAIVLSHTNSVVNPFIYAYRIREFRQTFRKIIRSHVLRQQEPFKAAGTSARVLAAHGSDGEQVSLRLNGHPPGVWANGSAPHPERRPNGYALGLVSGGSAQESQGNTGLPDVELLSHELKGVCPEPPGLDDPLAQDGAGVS

Molecule	Unit Of Measurement	Ki
Cc1cc(C)n(-c2cc(NC(=O)CCN(C)C)nc(-c3ccc(C)o3)n2)n1	nM	2.1
Cc1cc(C)n(-c2cc(NC(=O)CN3CC[C@@H](CN(C)C)C3)nc(-c3ccc(C)o3)n2)n1	nM	2.1
Cc1cc(C)n(-c2cc(NC(=O)CN3CCOCC3)nc(-c3ccc(C)o3)n2)n1	nM	5.7
COC1CCN(CC(=O)Nc2cc(-n3nc(C)cc3C)nc(-c3ccc(C)o3)n2)CC1	nM	15
Cc1cc(C)n(-c2cc(NC(=O)CN3CCC(CN(C)C)CC3)nc(-c3ccc(C)o3)n2)n1	nM	2.9
Cc1cc(C)n(-c2cc(NC(=O)CN3CCCOCC3)nc(-c3ccc(C)o3)n2)n1	nM	6
Cc1cc(C)n(-c2cc(NC(=O)CC3CCN(C)CC3)nc(-c3ccc(C)o3)n2)n1	nM	5.4
Cc1cc(C)n(-c2cc(NC(=O)CN3CCC[C@@H](CN(C)C)C3)nc(-c3ccc(C)o3)n2)n1	nM	1.5
Cc1cc(C)n(-c2cc(NC(=O)CN3CC[C@H](CN(C)C)C3)nc(-c3ccc(C)o3)n2)n1	nM	11
Cc1cc(C)n(-c2cc(NC(=O)CN3CCCN(C)CC3)nc(-c3ccc(C)o3)n2)n1	nM	10
Cc1cc(C)n(-c2cc(NC(=O)CN3CCC[C@H](CN(C)C)C3)nc(-c3ccc(C)o3)n2)n1	nM	10
Cc1cc(C)n(-c2cc(NC(=O)CCN3CC[C@H](N(C)C)C3)nc(-c3ccc(C)o3)n2)n1	nM	2.4

----------
Item-by-item account of concentration at 2 h
assay: Drug level in Wistar rat brain at 30 mg/kg, po after 2 hrs; type: ADME, organism-based; parameters: dose 30 mg/kg, route oral; settings: read-out: Drug uptake
Measure: concentration at 2 h (ng/g)

Molecule	Measure	Unit Of Measurement	Data Value
Cc1cc(C)n(-c2cc(NC(=O)CN3CC[C@H](N(C)C)C3)nc(-c3ccc(C)o3)n2)n1	concentration at 2 h	ng/g	1900
Cc1cc(C)n(-c2cc(NC(=O)CCN3CC[C@H](N(C)C)C3)nc(-c3ccc(C)o3)n2)n1	concentration at 2 h	ng/g	250

----------
organism: Homo sapiens; experiment: Selectivity ratio of Ki for human adenosine A1 receptor to Ki for human adenosine A2A receptor
Exam item: assign fulfilled to entries whose Ratio Ki is below 100 and not fulfilled to entries at or above 100. Note that a value of exactly 100 receives not fulfilled.

Molecule	Cat
Cc1cc(C)n(-c2cc(NC(=O)CN3CCCOCC3)nc(-c3ccc(C)o3)n2)n1	not fulfilled
CC(=O)N1CCN(CC(=O)Nc2cc(-n3nc(C)cc3C)nc(-c3ccc(C)o3)n2)CC1	not fulfilled
Cc1cc(C)n(-c2cc(NC(=O)CN3CCC(CN(C)C)CC3)nc(-c3ccc(C)o3)n2)n1	not fulfilled
CCN[C@H]1CCN(CC(=O)Nc2cc(-n3nc(C)cc3C)nc(-c3ccc(C)o3)n2)C1	not fulfilled
Cc1cc(C)n(-c2cc(NC(=O)CN3CCC[C@@H](CN(C)C)C3)nc(-c3ccc(C)o3)n2)n1	fulfilled
Cc1cc(C)n(-c2cc(NC(=O)CN3CC[C@H](N(C)C)C3)nc(-c3ccc(C)o3)n2)n1	not fulfilled
Cc1cc(C)n(-c2cc(NC(=O)CN3CCC[C@H](CN(C)C)C3)nc(-c3ccc(C)o3)n2)n1	fulfilled
Cc1cc(C)n(-c2cc(NC(=O)CN3CC[C@@H](N(C)C)C3)nc(-c3ccc(C)o3)n2)n1	fulfilled
Cc1cc(C)n(-c2cc(NC(=O)CN3CC[C@H](OC(C)C)C3)nc(-c3ccc(C)o3)n2)n1	fulfilled
